- protocol: folding stability dG unfold (combined trypsin and chymotrypsin); higher = more stable
measured.quantity: folding stability dG unfold (kcal/mol)
Report as a plain number; the unit kcal/mol is understood.

Note to self: folding stability dG unfold recorded for SAGFKIDDVETEKDPDGEKEITFRYVDPGDGRPWMLNLRINPNGKLTEENPVPFDDFPPGSYWTIRIKSAGG [r19_393_TrROS] was 0.402

Entry SAGMPLPVKLVSFEPGANTLTIDRPYTNGPVTLSPDGTLTITGTLRDENGKPLETFTETIPVNWPEGTRSAG [r5_475_JUSTAS] , folding stability dG unfold reported as -0.568

Query SASISVASPEEAEKIAKELKEKYGAKSVKIEPLPEPLVKVTIEFEVPLENGKTATRKIVLLFSSDGKEESAG [r14_420_TrMRF] yields folding stability dG unfold of 2.44

Taken from the supplement of paper PMC12764529.
